- assay-system: T1, Human Serum Albumin (human, UniProt P02768 25-609)
- T1 construct: also called HSA; antigen
- T1 sequence (P02768 25-609 limits assumed): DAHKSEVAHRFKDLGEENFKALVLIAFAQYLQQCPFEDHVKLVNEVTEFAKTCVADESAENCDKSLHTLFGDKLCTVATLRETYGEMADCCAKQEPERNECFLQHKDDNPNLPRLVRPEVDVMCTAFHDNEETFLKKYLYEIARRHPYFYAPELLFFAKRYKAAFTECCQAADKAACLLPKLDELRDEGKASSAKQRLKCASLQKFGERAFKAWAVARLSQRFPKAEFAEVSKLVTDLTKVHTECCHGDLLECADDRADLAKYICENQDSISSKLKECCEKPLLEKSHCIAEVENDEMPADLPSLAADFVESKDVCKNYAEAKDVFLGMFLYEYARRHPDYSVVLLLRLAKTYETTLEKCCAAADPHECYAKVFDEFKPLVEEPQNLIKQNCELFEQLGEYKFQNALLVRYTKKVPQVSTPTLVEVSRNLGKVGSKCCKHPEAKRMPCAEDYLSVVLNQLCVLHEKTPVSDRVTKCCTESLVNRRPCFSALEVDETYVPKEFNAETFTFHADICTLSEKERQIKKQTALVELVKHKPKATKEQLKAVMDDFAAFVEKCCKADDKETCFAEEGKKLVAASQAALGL
- assay-procedure: SPR (Biacore 2000), purified dAb over HSA (559 RU) on CM5 chip
property-name: koff (s⁻¹)
# number only, unit s⁻¹ dropped from output

The recorded koff for entry DOM7h-14-10 (other, also called DOM7h-14-10 parent) VL: DIQMTQSPSSLSASVGDRVTITCRASQWIGSQLSWYQQKPGKAPKLLIMWRSSLQSGVPSRFSGSGSGTDFTLTISSLQPEDFATYYCAQGLRHPKTFGQGTKVEIKR equals 0.017

Briefly, koff measured for DOM7h-14-10 A43I (other, name in Kabat numbering, also called A43I mutant of DOM7h-14-10) VL: DIQMTQSPSSLSASVGDRVTITCRASQWIGSQLSWYQQKPGKIPKLLIMWRSSLQSGVPSRFSGSGSGTDFTLTISSLQPEDFATYYCAQGLRHPKTFGQGTKVEIKR : 0.012

Data provenance: patent US20130045895A1
